Data provenance: patent US7625948B2

Test system: HepG2 cells
PROCEDURE_SUMMARY: Test Example 2: inhibition of apolipoprotein B secretion from HepG2 cells, ELISA (also used for metabolites in Test Example 8)
Assay type: cell-based
RUN_CONDITIONS: Homo sapiens, 24 hours, apo B in supernatant by ELISA, read-out: Test Example 2 Inhibition of apo B secretion IC50
Consider the cut-off 3 nM. If the recorded IC50 is strictly smaller, the label is Criterion met; if not, the label is Criterion not met.

Ask | Confirm or reject: IC50 of `CCOC(=O)C(COC(=O)Cc1ccc(NC(=O)c2sc(C)nc2-c2ccc(C(F)(F)F)cc2)cc1)(C(=O)OCC)c1ccccc1` lies strictly below 3 nM
Reply | Criterion not met

Ask | Does the reported IC50 of the following molecule sit strictly below 3 nM? `O=C(Cc1ccc(NC(=O)c2ccccc2-c2ccc(C(F)(F)F)cc2)cc1)OCC1(C(=O)NCC(F)(F)F)c2ccccc2-c2ccccc21`
Reply | Criterion not met

Ask | IC50 strictly < 3 nM for this molecule? `CCOC(=O)C(COC(=O)Cn1ccc2c(NC(=O)c3ccccc3-c3ccc(C(F)(F)F)cc3)cccc21)(C(=O)OCC)c1ccccc1`
Reply | Criterion not met

Ask | Say whether its IC50 is strictly beneath 3 nM. Entry: `CCCNC(=O)C(COC(=O)Cc1ccc(NC(=O)c2ccccc2-c2ccc(C(F)(F)F)cc2)c(OC)c1)(C(=O)NCCC)c1ccccc1`
Reply | Criterion met

Ask | Quick check: does `CCOC(=O)C(COC(=O)Cc1ccc(NC(=O)c2ccccc2-c2ccc(C(F)(F)F)cc2)c(C(=O)N(CC)CC)c1)(C(=O)OCC)c1ccccc1` have IC50 under 3 nM?
Reply | Criterion met

Ask | Given `O=C(Nc1ccccc1-c1ccccc1)c1ccc(C(=O)OCCC2(C(=O)NCC(F)(F)F)c3ccccc3-c3ccccc32)cc1` , is recorded IC50 strictly lower than 3 nM?
Reply | Criterion not met

Ask | Just wondering, is IC50 of `CCOC(=O)C(COC(=O)Cc1ccc(NC(=O)c2ccccc2-c2ccc(C(F)(F)F)cc2)c(C(=O)N(C)C)c1)(C(=O)OCC)c1ccc(C)s1` below 3 nM?
Reply | Criterion met

Ask | Please check: IC50 for CCOC(=O)C(COC(=O)Cc1ccc(NC(=O)c2ccccc2-c2ccc(C(F)(F)F)cc2)c(C(=O)N(C)C)c1)c1ccccc1 (stereo not drawn) , strictly under 3 nM or not?
Reply | Criterion not met

Ask | I'd appreciate it if you could check whether `CCOC(=O)C(COC(=O)Cc1ccc(NC(=O)c2ccccc2-c2ccc(C(F)(F)F)cc2)c(C(=O)N(C)C)c1)(C(=O)OCC)c1nccs1` has IC50 smaller than 3 nM.
Reply | Criterion met

Ask | Hello, is IC50 of the following molecule strictly smaller than 3 nM? `CCOC(=O)C(COC(=O)Cc1ccc(NC(=O)c2ccccc2-c2ccc(C(F)(F)F)cc2)c(NC(C)=O)c1)(C(=O)OCC)c1ccccc1`
Reply | Criterion not met

Ask | Here's an entry: `CNC(=O)C(COC(=O)Cc1ccc(NC(=O)c2ccccc2-c2ccc(C(F)(F)F)cc2)cc1)(C(=O)NC)c1ccccc1` . Is its IC50 below 3 nM?
Reply | Criterion not met

Ask | A record lists `CCCC(COC(=O)Cc1ccc(NC(=O)c2ccccc2-c2ccc(C(F)(F)F)cc2)c(C(=O)N(C)C)c1)(C(=O)OCC)C(=O)OCC` . Is its IC50 below 3 nM?
Reply | Criterion not met
